Protocol text: Diacetylresveratryl thioctate stabilization test in candidate solvents (solubility at t0 and a day later)
Conditions: diacetylresveratryl thioctate in the named solvent, initial, ambient temperature

Compound | Solubility t0/AT
CCCCC(CC)COC(=O)C(C#N)=C(c1ccccc1)c1ccc(OC)cc1 (centres unmarked) [Ethylhexyl methoxycrylene] | Partially soluble
CO[C@H]1CO[C@H]2[C@@H]1OC[C@H]2OC [Dimethyl isosorbide] | Partially soluble
O=C(Oc1ccccc1)c1ccccc1 [Phenyl benzoate] | Partially soluble
CCCCCCCCOC(=O)c1ccc(C(=O)OCCCCCCCC)c(C(=O)OCCCCCCCC)c1 [Trioctyl trimellitate] | Partially soluble
